Measured values drawn from patent US9999619B2 for this set.

pIC50: −log10 of the molar value. Structures can show the parent of a compound that is named as a salt.
Quick record of pIC50 values for human JAK1 (a.a. 837-1142) (Homo sapiens, UniProt P23458).

Example entries and their recorded answers appear below.
N#CCC1(n2cc(-c3ncnc4[nH]ccc34)cn2)CN(C2CCN(C(=O)Nc3ccccc3C(F)(F)F)CC2)C1 ... ≥ 8.30
N#CCC1(n2cc(-c3ncnc4[nH]ccc34)cn2)CN(C2CCN(C(=O)Nc3ccc(OC(F)(F)F)cc3)CC2)C1 ... 7.70 to 8.30
Cc1csc(NC(=O)N2CCC(N3CC(CC#N)(n4cc(-c5ncnc6[nH]ccc56)cn4)C3)CC2)n1 ... 7.52 to 7.70
N#CCC1(n2cc(-c3ncnc4[nH]ccc34)cn2)CN(C2CCN(C(=O)c3cc(CN4CC[C@@H](F)C4)nc(C(F)(F)F)n3)CC2)C1 [Example 378, TFA] ... ≥ 8.30
N#CCC1(n2cc(-c3ncnc4[nH]ccc34)cn2)CN(C2CCN(C(=O)c3cc(F)ccc3F)CC2)C1 ... ≥ 8.30
CS(=O)(=O)N1CCC(N2CC(CC#N)(n3cc(-c4ccnc5[nH]ccc45)cn3)C2)CC1 ... ≥ 8.30
CCn1nccc1NC(=O)N1CCC(N2CC(CC#N)(n3cc(-c4ncnc5[nH]ccc45)cn3)C2)CC1 ... 7.70 to 8.30
N#CCC1(n2cc(-c3ncnc4[nH]ccc34)cn2)CN(C2CCN(C(=O)c3c(F)c(F)cc(F)c3F)CC2)C1 ... ≥ 8.30

Find the measured pIC50: item N#CCC1(n2ccc(-c3ncnc4[nH]ccc34)c2)CN(C2CCN(C(=O)c3ccnc(C(F)(F)F)c3F)CC2)C1 , target or system human JAK1 (a.a. 837-1142) (Homo sapiens, UniProt P23458).
7.70 to 8.30

Queued: N#CCC1(n2cc(-c3c(C#N)cnc4[nH]ccc34)cn2)CN(C2CCN(C(=O)c3ccc(C#N)c(F)c3)CC2)C1
7.52 to 7.70

Queued: N#CCC1(n2cc(-c3ncnc4[nH]ccc34)cn2)CN(C2CCN(C(=O)c3cncc(C(F)(F)F)n3)CC2)C1
≥ 8.30

Queued: N#CCC1(n2cc(-c3ccnc4[nH]ccc34)cn2)CN(C2CCN(C(=O)Nc3ccc(F)cc3C(F)(F)F)CC2)C1
≥ 8.30

Queued: N#CCC1(n2cc(-c3ncnc4[nH]ccc34)cn2)CN(C2CCN(C(=O)Nc3ccsc3)CC2)C1
7.70 to 8.30

Queued: N#CCC1(n2cc(-c3ncnc4[nH]ccc34)cn2)CN(C2CCN(C(=O)Nc3ccc(F)c(F)c3)CC2)C1
≥ 8.30

Queued: N#CCC1(n2cc(-c3ncnc4[nH]ccc34)cn2)CN(C2CCN(C(=O)c3cc(F)c(F)cc3F)CC2)C1
≥ 8.30

Queued: N#CCC1(n2cc(-c3ncnc4[nH]ccc34)cn2)CN(C2CCN(C(=O)Nc3nc(-c4ccc(Cl)cc4)cs3)CC2)C1
7.52 to 7.70

Queued: COc1cc(OC)cc(C(=O)N2CCC(N3CC(CC#N)(n4cc(-c5ncnc6[nH]ccc56)cn4)C3)CC2)c1
≥ 8.30

Queued: CC(C)COC(=O)N1CCC(N2CC(CC#N)(n3cc(-c4ncnc5[nH]ccc45)cn3)C2)CC1
≥ 8.30

Queued: COc1ccc(C(=O)N2CCC(N3CC(CC#N)(n4cc(-c5ncnc6[nH]ccc56)cn4)C3)CC2)cc1F
≥ 8.30

Queued: N#CCC1(n2cc(-c3ncnc4[nH]ccc34)cn2)CN(C2CC3CCC(C2)N3C(=O)c2cc(F)cc(C#N)c2)C1 (stereo not shown)
≥ 8.30

Queued: N#CCC1(n2cc(-c3ncnc4[nH]ccc34)cn2)CN(C2CCN(C(=O)c3cc(F)cc(C(F)(F)F)c3)CC2)C1
≥ 8.30

Queued: Cn1nccc1S(=O)(=O)N1CCC(N2CC(CC#N)(n3cc(-c4ncnc5[nH]ccc45)cn3)C2)CC1
≥ 8.30

Queued: N#CCC1(n2cc(-c3ncnc4[nH]ccc34)cn2)CN(C2CCN(C(=O)c3ccsc3)CC2)C1
7.70 to 8.30

Queued: N#CCC1(n2cc(-c3ccnc4[nH]ccc34)cn2)CN(C2CCN(C(=O)Nc3ccncc3C(F)(F)F)CC2)C1
7.70 to 8.30
